- systemName: T1, Peptide 4: Biotin-AGGGGSGGGGSGGGGSAAA-Tyr-acid (N-terminal biotin; C-terminal acid; no PC)
- T1 construct: control peptide without PC
- T1 peptide: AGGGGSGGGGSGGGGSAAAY
- assay: scFv ELISA
measuredProperty: OD450 (OD450)
Respond numerically; units are OD450 and should not be typed.

[
  {
    "binder": "PcOxP_DB01_F08 (scFv, V domains shown, scFv in periplasmic extract) VH: EVQLLESGGGLVQPGGSLRLSCAASGFTFSDGYMEWVRQAPGKGLEWVAASRNKWNDYTTEYADSVKGRFTISRDNSKNTLYLQMNSLRAEDTAVYYCARDYYGSSYWYFDVWGQGTLVTVSS VL: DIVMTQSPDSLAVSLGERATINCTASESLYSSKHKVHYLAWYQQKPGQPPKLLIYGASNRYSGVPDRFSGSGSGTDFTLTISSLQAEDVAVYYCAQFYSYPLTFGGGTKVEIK",
    "measuredProperty": "OD450",
    "numericResult": 0.04
  }
]

Would you kindly look at the next entry?
What does the record list as OD450 for PcOxP_DB01_A05 (scFv, V domains shown, scFv in periplasmic extract) VH: EVQLLESGGGLVQPGGSLRLSCAASGFTFSDYYMEWVRQAPGKGLEWVAASRNKANDYTTEYADSVKGRFTISRDNSKNTLYLQMNSLRAEDTAVYYCARDYYGNSYWYFDVWGQGTLVTVSS VL: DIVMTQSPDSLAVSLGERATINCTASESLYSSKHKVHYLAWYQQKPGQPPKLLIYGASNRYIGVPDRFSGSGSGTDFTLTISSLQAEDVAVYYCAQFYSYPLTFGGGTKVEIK ?
0.04
